# Assay Target: Recombinant human His-tagged Kat6a protein (amino acids 194-810) (Homo sapiens (Human))
# Sequence (Q92794 194-810): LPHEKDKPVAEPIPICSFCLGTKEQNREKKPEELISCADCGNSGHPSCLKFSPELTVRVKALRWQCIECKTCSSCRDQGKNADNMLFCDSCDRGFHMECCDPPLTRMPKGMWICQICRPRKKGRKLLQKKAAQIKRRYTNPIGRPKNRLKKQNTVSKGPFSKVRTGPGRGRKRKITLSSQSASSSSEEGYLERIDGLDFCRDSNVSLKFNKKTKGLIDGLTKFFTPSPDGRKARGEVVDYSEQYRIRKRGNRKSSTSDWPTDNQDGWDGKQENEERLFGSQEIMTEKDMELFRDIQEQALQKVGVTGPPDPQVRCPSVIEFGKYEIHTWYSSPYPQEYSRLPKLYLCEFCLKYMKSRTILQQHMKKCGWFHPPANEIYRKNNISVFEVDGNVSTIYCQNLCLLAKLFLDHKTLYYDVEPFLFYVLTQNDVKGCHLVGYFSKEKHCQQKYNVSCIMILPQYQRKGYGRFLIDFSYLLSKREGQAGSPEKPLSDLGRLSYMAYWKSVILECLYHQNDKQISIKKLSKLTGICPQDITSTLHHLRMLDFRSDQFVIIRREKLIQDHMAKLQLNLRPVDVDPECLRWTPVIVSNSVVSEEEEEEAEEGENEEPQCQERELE
# Measurement Notes: Kat6a activity assay (TR-FRET, acetylation of biotinylated Histone-H4-derived peptide)
# Condition: 60 mins at 22° C., read-out: KAT6A-DPF/HAT domain IC50 [mol/l] (arithmetic mean)
Readout Name: log10(IC50) (log10 of the value in nM)
Use the decimal logarithm of IC50 (nM).

Q: Requested read-out: log10(IC50). Entry: CCOc1ccccc1S(=O)(=O)NC(=O)c1cc2cc(Cl)c(N(C)C)cc2o1 [Example 188]
Ans: 4.01

Q: Requested read-out: log10(IC50). Entry: COc1ccc(S(=O)(=O)NC(=O)c2cc3ccc(N(C)C)cc3o2)cn1 [Example 152]
Ans: 3.15

Q: Requested read-out: log10(IC50). Entry: Cc1ccc2cccc(S(=O)(=O)NC(=O)c3cc4ccc(N(C)C)c(F)c4o3)c2n1 [Example 190]
Ans: 3.15

Q: Requested read-out: log10(IC50). Entry: CCOc1ccc(Oc2ccccc2)cc1S(=O)(=O)NC(=O)c1cc2ccc(N(C)C)cc2o1 [Example 174]
Ans: 1.07

Q: Requested read-out: log10(IC50). Entry: Cc1cccc(C2CCCC2)c1S(=O)(=O)NC(=O)c1cc2ccc(N(C)C)cc2o1 [Example 157]
Ans: 3.50

Q: Requested read-out: log10(IC50). Entry: CCOc1cccnc1S(=O)(=O)NC(=O)c1cc2ccc(N(C)C)cc2o1 [Example 101]
Ans: 2.70

Q: Requested read-out: log10(IC50). Entry: COc1cc(C#N)ccc1S(=O)(=O)NC(=O)c1cc2ccc(N(C)C)cc2o1 [Example 53]
Ans: 2.64

Q: Requested read-out: log10(IC50). Entry: CCOc1ccccc1S(=O)(=O)NC(=O)c1cc2cc(C#N)c(N(C)C)cc2o1 [Example 204]
Ans: 3.41

---

Kindly state pIC50 for each of the entries shown.
# Assay Target: Recombinant human GST-tagged Kat6b protein (431-end)
# Measurement Notes: Kat6b activity assay (TR-FRET, acetylation of biotinylated Histone-H4-derived peptide)
# Condition: 30 mins at 22° C., read-out: KAT6B activity assay IC50 [mol/l] (arithmetic mean)
# Procedure: Kat6b inhibitory activities of the compounds described in the present invention were quantified using a Fluorescence Resonance Energy Transfer (TR-FRET) assay which measures acetylation of a synthetic, biotinylated Histone-H4-derived peptide by the enzyme. In this case 50 nl DMSO were used instead of compounds. […] IC50 values were determined by regression analysis based on a 4 parameter equation (minimum, maximum, ICM, Hill; Y=Max+(Min−Max)/(1+(X/ICso) Hill) using the Screener Software (Genedata).
Scale explanation: pIC50 corresponds to minus log10 of a concentration expressed in moles per litre.

Q: Requested read-out: pIC50. Entry: `CN(C)c1ccc2cc(C(=O)NS(=O)(=O)c3cc(C#N)ccn3)oc2c1`
Ans: 5.23

Q: Requested read-out: pIC50. Entry: `CCOc1ccccc1S(=O)(=O)NC(=O)c1cc2c(F)cc(N(C)C)cc2o1`
Ans: 7.94

Q: Requested read-out: pIC50. Entry: `O=C(NS(=O)(=O)c1ccccc1-c1ccccc1)c1cc2ccc(N3CCCCC3)cc2o1`
Ans: 4.80

Q: Requested read-out: pIC50. Entry: `CCOc1ccc(C)cc1S(=O)(=O)NC(=O)c1cc2ccc(N(C)C)cc2o1`
Ans: 6.93

Q: Requested read-out: pIC50. Entry: `CN(C)c1ccc2cc(C(=O)NS(=O)(=O)c3ccc(-c4ccccc4)cc3)oc2c1`
Ans: 6.63

Q: Requested read-out: pIC50. Entry: `Cc1cc(Cl)c2cccc(S(=O)(=O)NC(=O)c3cc4ccc(N(C)C)cc4o3)c2n1`
Ans: 7.26

Q: Requested read-out: pIC50. Entry: `CN(C)c1ccc2cc(C(=O)NS(=O)(=O)c3ccccc3-c3ccccc3)sc2c1`
Ans: 6.35

Q: Requested read-out: pIC50. Entry: `CCOc1cccc(-c2cccc(Cl)c2)c1S(=O)(=O)NC(=O)c1cc2ccc(N(C)C)cc2o1`
Ans: 7.30

Q: Requested read-out: pIC50. Entry: `COc1ccc(Br)cc1S(=O)(=O)NC(=O)c1cc2ccc(N(C)C)cc2o1`
Ans: 7.17

Q: Requested read-out: pIC50. Entry: `COc1ccccc1S(=O)(=O)NC(=O)c1cc2c(F)cc(N(C)C)cc2o1`
Ans: 7.74

Q: Requested read-out: pIC50. Entry: `CCOc1ccccc1S(=O)(=O)NC(=O)c1cc2ccc(N(C)c3ccccc3)cc2o1`
Ans: 5.37

Q: Requested read-out: pIC50. Entry: `Cc1ccccc1-c1ccccc1S(=O)(=O)NC(=O)c1cc2ccc(N(C)C)cc2o1`
Ans: 7.19

Q: Requested read-out: pIC50. Entry: `CN(C)c1ccc2cc(C(=O)NS(=O)(=O)c3ccccc3OC(F)F)oc2c1`
Ans: 6.70

Q: Requested read-out: pIC50. Entry: `CC(=O)Nc1ccc2cc(C(=O)NS(=O)(=O)c3ccccc3-c3ccccc3)oc2c1`
Ans: 4.99

Q: Requested read-out: pIC50. Entry: `CN(C)c1ccc2cc(C(=O)NS(=O)(=O)c3cc(Cl)c(Cl)cc3OC(F)(F)F)oc2c1`
Ans: 6.97

Q: Requested read-out: pIC50. Entry: `CN(C)c1ccc2cc(C(=O)NS(=O)(=O)c3ccccc3OCCF)oc2c1`
Ans: 6.72

Q: Requested read-out: pIC50. Entry: `CN(C)c1ccc2cc(C(=O)NS(=O)(=O)c3ccccc3Cl)oc2c1`
Ans: 6.70

Hello, the source for this data is patent US12357603B2, in case you need it.
